Parameter Fold induction: see the listing below.
target: PD1-PDL1 interaction (Homo sapiens, UniProt Q9NZQ7); construct: endogenous in cells; host or cells: MDA-MB-231 tumor cells (PD-L1); primary splenocytes of C57BL/6 mice (PD-1); assay: CFSE mouse splenocyte proliferation assay (FACS), co-culture with MDA-MB-231 tumor cells expressing PD-L1; type: cell-based; settings: % splenocyte proliferation/% background proliferation; MDAMB231 over expressing PDL1; background 1.0, stimulated splenocytes 5.5
Sequence (Q9NZQ7 19-290): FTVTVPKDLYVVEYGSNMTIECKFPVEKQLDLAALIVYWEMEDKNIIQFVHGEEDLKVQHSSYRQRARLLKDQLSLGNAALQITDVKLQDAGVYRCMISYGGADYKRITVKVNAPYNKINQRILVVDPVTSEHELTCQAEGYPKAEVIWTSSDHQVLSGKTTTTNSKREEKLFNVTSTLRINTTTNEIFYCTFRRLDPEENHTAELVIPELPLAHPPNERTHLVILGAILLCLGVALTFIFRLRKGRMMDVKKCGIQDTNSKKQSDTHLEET
Where a SMILES comes first, the peptide text is derived from it. Bridges are numbered along the chain shown (N, C = ends). [ ]: non-standard residue; d: D form. ξ: configuration not given here. ξE = NC(CCC(=O)O)C(=O)O; ξK = NCCCCC(N)C(=O)O; ξS = NC(CO)C(=O)O
Number only, no unit.

# annotated cases, reported Fold induction shown
Compound	Measurement Name	Measured
CC[C@H](C)[C@H](NC(=O)[C@H](CO)NC(=O)C1CCCCNC(=O)CCC(NC(=O)[C@@H](N)CO)C(=O)N[C@@H]([C@@H](C)O)C(=O)N[C@@H](CO)C(=O)N1)C(N)=O (stereo partly shown) [Compound 5] (H-S[ξE]TS[ξK]SI-NH2; lactam 2-5; N-terminus assumed)	Fold induction	3.2
C[C@@H](O)[C@@H]1NC(=O)C(NC(=O)[C@@H](N)CCC(=O)O)CCC(=O)NCCCCC(C(=O)N[C@@H](CO)C(=O)N[C@@H](Cc2ccccc2)C(N)=O)NC(=O)[C@H](CO)NC1=O (stereo partly shown) [Compound 4] (H-E[ξE]TS[ξK]SF-NH2; lactam 2-5; N-terminus assumed)	Fold induction	2.8

Request: I would be grateful if you could share the reported Fold induction for CC[C@H](C)[C@H](N)C(=O)NC1CCC(=O)NCCCCC(C(=O)N[C@@H](CO)C(=O)N[C@@H](Cc2ccccc2)C(N)=O)NC(=O)[C@H](CO)NC(=O)[C@H]([C@@H](C)O)NC1=O (stereo partly shown) [Compound 6] (H-I[ξE]TS[ξK]SF-NH2; lactam 2-5; N-terminus assumed) .
Result: 4.2

Request: I would be grateful if you could share the reported Fold induction for C[C@@H](O)[C@@H]1NC(=O)[C@H](CCC(=O)O)NC(=O)C(CO)NC(=O)CCC(C(N)=O)NC(=O)[C@H](Cc2ccccc2)NC(=O)[C@H](CO)NC(=O)[C@H](CCCCN)NC(=O)[C@H](CO)NC1=O (stereo partly shown) [Compound 20] ([ξS]ETSKSF[ξE]-NH2; lactam N-8) .
Result: 2.8

* * *

Target: PD1-PDL1 interaction (Homo sapiens, UniProt Q9NZQ7)
Construct: endogenous in cells; host or cells: MDA-MB-231 tumor cells (PD-L1); primary splenocytes of C57BL/6 mice (PD-1)
Assay: CFSE mouse splenocyte proliferation assay (FACS), co-culture with MDA-MB-231 tumor cells expressing PD-L1
Type: cell-based
Details: mouse splenocytes stimulated with anti-CD3/CD28, co-culture with MDAMB231 over expressing PDL1, 72 hrs; background 13, stimulated splenocytes 72
Experimental: The effect of PD1 derived peptides on mouse splenocyte proliferation inhibited by PDL1/PDL2 or tumor cells expressing PDL; analyzed by Fluorescence Activated Cell Shorting (FACS) method using CFSE labeling. […] Cells were harvested and washed thrice with ice cold FACS buffer and % proliferation was analyzed using a FACS caliber with 488 nm excitation and 521 nm emission filters. […]
Where a SMILES comes first, the peptide text is derived from it. Bridges are numbered along the chain shown (N, C = ends). [ ]: non-standard residue; d: D form. ξ: configuration not given here. ξE = NC(CCC(=O)O)C(=O)O; ξQ = NC(=O)CCC(N)C(=O)O; ξK = NCCCCC(N)C(=O)O; ξS = NC(CO)C(=O)O
Parameter % Splenocyte proliferation: see the listing below.
Entry rule: numbers only, all in %.

Compound	% Splenocyte proliferation (%)
CC(C)[C@H](NC(=O)C1CCCCNC(=O)CCC(NC(=O)[C@@H](N)CO)C(=O)N[C@@H]([C@@H](C)O)C(=O)N[C@@H](CO)C(=O)N1)C(=O)N[C@@H](Cc1ccccc1)C(N)=O (some centres unmarked) [Compound 7] (H-S[ξE]TS[ξK]VF-NH2; lactam 2-5; N-terminus assumed)	52

Request: I would be grateful if you could share the reported % Splenocyte proliferation for C[C@@H](O)[C@@H]1NC(=O)[C@H](CCC(=O)O)NC(=O)C(CO)NC(=O)CCC(C(N)=O)NC(=O)[C@H](Cc2ccccc2)NC(=O)[C@H](CO)NC(=O)[C@H](CCCCN)NC(=O)[C@H](CO)NC1=O (some centres unmarked) [Compound 20] ([ξS]ETSKSF[ξE]-NH2; lactam N-8) .
Result: 36

Request: I would be grateful if you could share the reported % Splenocyte proliferation for C[C@@H](O)[C@@H]1NC(=O)C(NC(=O)[C@@H](N)CO)CCCCNC(=O)CCC(C(=O)N[C@@H](CO)C(=O)N[C@@H](Cc2ccccc2)C(N)=O)NC(=O)[C@H](CO)NC1=O (some centres unmarked) [Compound 1] (H-S[ξK]TS[ξE]SF-NH2; lactam 2-5) .
Result: 60

Request: I would be grateful if you could share the reported % Splenocyte proliferation for CC[C@H](C)[C@H](N)C(=O)NC1CCC(=O)NCCCCC(C(=O)N[C@@H](CO)C(=O)NC(CCC(N)=O)C(=O)O)NC(=O)[C@H](CO)NC(=O)[C@H](CCSC)NC1=O (some centres unmarked) [Compound 11] (H-I[ξE]MS[ξK]S[ξQ]-OH; lactam 2-5; N-terminus assumed) .
Result: 54

Request: I would be grateful if you could share the reported % Splenocyte proliferation for CC[C@H](C)[C@H](N)C(=O)NC1CCC(=O)NCCCCC(C(=O)N[C@@H](CO)C(=O)N[C@@H](Cc2ccccc2)C(N)=O)NC(=O)[C@H](CO)NC(=O)[C@H]([C@@H](C)O)NC1=O (some centres unmarked) [Compound 6] (H-I[ξE]TS[ξK]SF-NH2; lactam 2-5; N-terminus assumed) .
Result: 55

Source listed as patent US9422339B2.
